- Experiment summary: kinetic analysis, non-endpoint assay at 23° C.
- Format: biochemical
- Measurement parameters: Table 10 series, unit as defined, read-out: Km 2,4-D
Reported property: Km (µM)
Numbers only, in µM.

Measured Km, MON-HT13: engineered oxygenase protein, amino acid sequence SEQ ID NO:47 (protein) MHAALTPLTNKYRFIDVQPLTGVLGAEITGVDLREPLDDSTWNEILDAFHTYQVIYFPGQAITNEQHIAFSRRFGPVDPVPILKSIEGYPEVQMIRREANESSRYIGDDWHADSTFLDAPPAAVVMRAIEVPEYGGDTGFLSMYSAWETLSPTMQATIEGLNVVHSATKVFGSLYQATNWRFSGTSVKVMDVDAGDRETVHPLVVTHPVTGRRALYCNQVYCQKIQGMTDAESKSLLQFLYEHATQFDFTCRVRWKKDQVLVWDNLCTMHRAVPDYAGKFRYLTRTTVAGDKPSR : 80
